Entries annotated with measured pIC50
Target: KRas G12C (Homo sapiens, UniProt P01116, G12C)
Sequence (P01116 1-188 isoform P01116-2 G12C): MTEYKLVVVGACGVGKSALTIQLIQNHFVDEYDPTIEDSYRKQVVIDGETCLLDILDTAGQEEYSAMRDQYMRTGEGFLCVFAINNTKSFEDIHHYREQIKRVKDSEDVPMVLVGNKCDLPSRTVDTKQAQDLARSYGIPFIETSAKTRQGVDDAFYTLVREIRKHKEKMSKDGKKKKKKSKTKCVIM
Experiment: Cellular inhibition of KRas G12C measured by Phospho-ERK in NCI-H358 cells
Type: cell-based
Details: pERK(Thr202/Tyr204) normalized with GAPDH, NCI-H358 cells, 3 hours; read-out: IC50
pIC50: −log10 of the molar value.

| compound | assayTarget | pIC50 |
| --- | --- | --- |
| C=CC(=O)N1CCN(c2nc(O[C@H](C)CN(C)C)nc3c2CCN(c2cc(OC(F)(F)F)ccc2O)C3)CC1 | KRas G12C (Homo sapiens, UniProt P01116, G12C) | < 6.00 |
| C=C(F)C(=O)N1CCN(c2nc(SC[C@@H]3CCCN3C)nc3c2CCN(c2cccc4cccc(C)c24)C3)C[C@@H]1CC#N | KRas G12C (Homo sapiens, UniProt P01116, G12C) | < 6.00 |
| C=CC(=O)N1CCN(c2nc(OCCN3CCCCC3)nc3c2CCN(c2cccc4cccc(Cl)c24)C3)C[C@@H]1CC#N | KRas G12C (Homo sapiens, UniProt P01116, G12C) | 6.00 to 10.00 |
| C=CC(=O)N1CCN(c2nc(OCCN3CC(F)(F)C3)nc3c2CCN(c2cc(O)cc4ccccc24)C3)CC1 | KRas G12C (Homo sapiens, UniProt P01116, G12C) | < 6.00 |
| C=C(F)C(=O)N1CCN(c2nc(OC[C@@H]3CCCN3C)nc3c2CCN(c2cncc4ccc(F)cc24)C3)C[C@@H]1CC#N | KRas G12C (Homo sapiens, UniProt P01116, G12C) | 6.00 to 10.00 |
| C=CC(=O)N1CCN(c2nc(O[C@H](C)CN(C)C)nc3c2CCN(c2cc(O)c(Cl)c4ccccc24)C3)CC1 | KRas G12C (Homo sapiens, UniProt P01116, G12C) | < 6.00 |
| C=CC(=O)N1CCN(c2nc(OCCN(C)C)nc3c2CCN(c2ccccc2C(F)(F)F)C3)CC1CC#N (stereo not shown) [Example 296] | KRas G12C (Homo sapiens, UniProt P01116, G12C) | 6.00 to 10.00 |

###

Target: KRas G12C (Homo sapiens, UniProt P01116, G12C)
Assay: Cellular inhibition of KRas G12C measured by Phospho-ERK in NCI-H358 cells
Format: cell-based
Settings: pERK(Thr202/Tyr204) normalized with GAPDH, NCI-H358 cells, 3 hours; read-out: IC50
This section presents molecules with their documented IC50 values.

| molecule | IC50 |
| --- | --- |
| C=CC(=O)N1CCN(c2nc(N3CCCC(N(C)C)C3)nc3c2CCN(c2cccc4ccccc24)C3)C[C@@H]1CC#N (some centres unmarked) [Example 405] | 0.1 to 1000 nM |
| C=CC(=O)N1CCN(c2nc(OCCN3CCC(OC)C3)nc3c2CCN(c2cc(O)cc4ccccc24)C3)CC1 (centres unmarked) [Example 136] | > 1000 nM |
| C=CC(=O)N1CCN(c2nc(OCCCN3C[C@@H]4C[C@H]3CO4)nc3c2CCN(c2cccc4cccc(C)c24)C3)C[C@@H]1CC#N [Example 369] | 0.1 to 1000 nM |
| C=CC(=O)N1CCN(c2nc(O[C@H](C)CN(C)C)nc3c2CCN(c2cc(O)cc(Cl)c2C(C)C)C3)CC1 [Example 76] | > 1000 nM |
| C=CC(=O)N1CCN(c2nc(OCCN3CCCCC3)nc3c2CCN(c2cccc4ccccc24)C3)C[C@@H]1CC#N [Example 409] | 0.1 to 1000 nM |
| C=CC(=O)N1CCN(c2nc(OC[C@@H]3CCNC3)nc3c2CCN(c2cc(O)cc4ccccc24)C3)CC1 [Example 146] | > 1000 nM |
| C=C(F)C(=O)N1CCN(c2nc(OC[C@@H]3CCCN3C)nc3c2CCN(c2cccc(C)c2C)C3)C[C@@H]1CC#N [Example 472] | 0.1 to 1000 nM |
| C=C(F)C(=O)N1CCN(c2nc(OC[C@@H]3CCCN3C)nc3c2CCN(c2cncc4cccc(Cl)c24)C3)C[C@@H]1CC#N [Example 593] | 0.1 to 1000 nM |
| CN(C)C/C=C/C(=O)N1CCN(c2nc(OC[C@@H]3CCCN3C)nc3c2CCN(c2cccc4ccccc24)C3)C[C@@H]1CC#N [Example 235] | 0.1 to 1000 nM |
| C=C(F)C(=O)N1CCN(c2nc(OC[C@@H]3CCCN3C)nc3c2CCN(c2cccc4cccc(C)c24)C3)C[C@@H]1CC#N [Example 507] | 0.1 to 1000 nM |
| Cc1cccc2cccc(N3CCc4c(nc(OC[C@@H]5CCCN5C)nc4N4CCN(C(=O)/C=C/C(N)=O)[C@@H](CC#N)C4)C3)c12 [Example 500] | 0.1 to 1000 nM |
| C=CC(=O)N1CCN(c2nc(O[C@H](C)CN3CCCC3)nc3c2CCN(c2cc(O)cc4ccccc24)C3)CC1 [Example 120] | 0.1 to 1000 nM |
| C=CC(=O)N1CCN(c2nc(OC[C@@H]3CCCN3C)nc3c2CCN(c2ccccc2C(F)(F)F)C3)CC1CC#N (some centres unmarked) [Example 210] | 0.1 to 1000 nM |
| C=CC(=O)N1CCN(c2nc(OC[C@@H]3CCCN3C)nc3c2CCN(c2cccc4cnccc24)C3)CC1CC#N (some centres unmarked) [Example 292] | > 1000 nM |
| C=CC(=O)N1CCN(c2nc(OC[C@@H]3CCCN3C)nc3c2CCN(c2ccccc2C(F)(F)F)C3)C[C@@H]1CC#N [Example 237, 2,2,2-trifluoroacetate] | 0.1 to 1000 nM |
| C=C(F)C(=O)N1CCN(c2nc(OC[C@@H]3C[C@@H](F)CN3C)nc3c2CCN(c2cccc4cccc(C)c24)C3)C[C@@H]1CC#N [Example 560] | 0.1 to 1000 nM |
| C=CC(=O)N1CCN(c2nc(OCCN3CCOCC3)nc3c2CCN(c2cc(O)cc4ccccc24)C3)CC1 [Example 117] | > 1000 nM |
| C=CC(=O)N1CCN(c2nc(OC[C@@H]3C[C@H](F)CN3C)nc3c2CCN(c2cccc4ccccc24)C3)CC1CC#N (some centres unmarked) [Example 221] | 0.1 to 1000 nM |
| C=CC(=O)N1CCN(c2nc(O[C@H](C)CN(C)C)nc3c2CCN(c2cccc4ccccc24)C3)CC1 [Example 68] | > 1000 nM |
| C=CC(=O)N1CCN(c2nc(OC[C@@H]3CCCN3C)nc3c2CCN(c2cccc(C)c2C)C3)C[C@@H]1CC#N [Example 394] | 0.1 to 1000 nM |
| C=C(F)C(=O)N1CCN(c2nc(OC[C@@H]3CCCN3C)nc3c2CCN(c2cncc(Cl)c2C(F)(F)F)C3)C[C@@H]1CC#N [Example 600] | 0.1 to 1000 nM |
| C=CC(=O)N1CCN(c2nc(O[C@@H](C)CN(C)C)nc3c2CCN(c2cc(O)cc4ccccc24)C3)CC1 [Example 8] | > 1000 nM |
| Cc1cccc2cccc(N3CCc4c(nc(OC[C@@H]5CCCN5C)nc4N4CCN(C(=O)/C=C/c5ccncc5)[C@@H](CC#N)C4)C3)c12 [Example 526] | 0.1 to 1000 nM |
| C=C(F)C(=O)N1CCN(c2nc(OC[C@@H]3[C@H](O)CC(=O)N3C)nc3c2CCN(c2cccc4cccc(Cl)c24)C3)C[C@@H]1CC#N [Example 573] | > 1000 nM |
| C=CC(=O)N1CCN(c2nc(OC[C@@H]3CCCN3C)nc3c2CCN(c2cccc4cccc(C)c24)C3)C[C@@H]1CC#N [Example 359] | 0.1 to 1000 nM |
| C=CC(=O)N1CCN(c2nc(OC[C@H]3CN(C)C4(CC4)CO3)nc3c2CCN(c2cccc4ccccc24)C3)C[C@@H]1CC#N [Example 448] | 0.1 to 1000 nM |

Origin of the recorded values: patent US10689377B2
